experiment: growth inhibitors of H69AR lung tumor, primary screen, human, duplicate replicates (AID 580);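 further: 100% = mean luminescence of untreated wells and 0% = no signal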
setup-conditions: H69AR lung tumor cells viability, ATP luminescence, 72 h; at 10 µM; hits give low values
metric: viability (%)

>>> value("CC12COC3(C(=O)Nc4ccc(Cl)cn4)CC1CCC32C (centres undefined)")
94.6
>>> value("Cc1ccc(S(=O)(=O)N2CCN(C(=O)c3cc(=O)[nH]c4ccccc34)CC2)c(C)c1")
83.3
>>> value("COc1ccc(C(C(C(=O)c2cccs2)N2CCOCC2)N2CCOCC2)cc1OC (centres undefined)")
102
>>> value("CCCN(CCC)C(=O)C(CCC(=O)O)NC(=O)c1ccccc1 (centres undefined)")
105
>>> value("Cn1c(=O)n(C)c2cc(NC(=O)C(F)(F)F)ccc21")
97.4
>>> value("CCn1cc(C(=O)NCCN(C)CCc2ccccc2)c(=O)c2cc(S(=O)(=O)N(C)C)ccc21")
81.2
>>> value("COc1cc(C(=O)OC(C)CN2CCCC2)cc(OC)c1OC (centres undefined)")
108
>>> value("Cc1c(/C(O)=C2/C(=O)C(=O)N(CCN3CCOCC3)C2c2cccs2)cnn1-c1ccccc1 (centres undefined)")
96.2
>>> value("COc1ccc(S(=O)(=O)NC2CCCCC2)c(C)c1C")
96.3
>>> value("O=C(Nc1nnc(C2CCCCC2)s1)c1cccs1")
93.2
>>> value("Cc1ccccc1-c1nc2ccccc2c(=O)n1C1CCS(=O)(=O)C1 (centres undefined)")
90.3
>>> value("O=C1NCCCc2c1no[n+]2[O-]")
104
>>> value("COC(=O)c1ccc2c(=O)n(NC(C)=O)c(=S)[nH]c2c1")
93.7
>>> value("Cc1ccc2nsnc2c1S(=O)(=O)N1CCN(Cc2ccc3c(c2)OCO3)CC1")
91
>>> value("CS(=O)(=O)Nc1ccc(C(=O)NCc2ccc3c(c2)OCO3)cc1")
96.2
>>> value("Cc1ccc(NC(=O)c2ccco2)c(NC(=O)CN2C(=O)c3ccccc3C2=O)c1")
87.6
>>> value("O=C(Nc1ccccc1C(=O)N1CCOCC1)c1cccc(S(=O)(=O)N2CCCC2)c1")
88.2
>>> value("COc1ccc(N(CC(=O)Nc2ccccc2SC)S(C)(=O)=O)cc1OC")
98.2
>>> value("O=C(CNS(=O)(=O)c1ccccc1)NCc1ccccn1")
102
>>> value("CCCOc1ccc(N2C(=O)CC(NCCCN3CCC(C(N)=O)CC3)C2=O)cc1 (centres undefined)")
88.6
>>> value("Cc1ccc(N(C(C)C(=O)Nc2ccc(S(=O)(=O)N3CCOCC3)cc2)S(C)(=O)=O)cc1 (centres undefined)")
99.8
>>> value("O=C(CN1CCN(c2ccc(F)cc2)CC1)OCc1ccccc1")
92.6
>>> value("CCCNS(=O)(=O)c1ccc(OCC(=O)Nc2ccccc2F)cc1")
87.3
>>> value("Cc1cccc(N(C)C(=S)Oc2ccc3ccccc3c2)c1")
97.1
>>> value("CC(=O)Nc1ccc(S(=O)(=O)N2CCN(Cc3ccncc3)CC2)cc1")
109
>>> value("O=C1c2cccnc2C(O)N1Cc1ccc(F)cc1 (centres undefined)")
102
>>> value("COc1ccccc1CC(=O)NCC1CCCO1 (centres undefined)")
99
>>> value("COc1ccc2ccccc2c1CN1CCCC(CO)C1 (centres undefined)")
82
>>> value("CCCCCCC(=O)c1c(C)[nH]c(C(=O)OCC)c1C")
92.7
>>> value("CO[C@H]1C[C@@H]2CC[C@@H](C)[C@@](O)(O2)C(=O)C(=O)N2CCCC[C@H]2C(=O)O[C@H]([C@H](C)C[C@@H]2CC[C@@H](O)[C@H](OC)C2)CC(=O)[C@H](C)C=C(C)[C@@H](O)[C@@H](OC)C(=O)[C@H](C)C[C@H](C)C=CC=CC=C1C")
67.1
>>> value("Cc1cc(=O)oc2cc(OCC(=O)OCC(=O)N3CCc4ccccc43)ccc12")
93.2
>>> value("COc1cccc(OC)c1OCCCSc1nc(C)cc(=O)[nH]1")
91.1
>>> value("COc1ccccc1NC(=O)NC(N)=O")
96.4
>>> value("Cc1cc(C(=O)Nc2nnc(C(F)(F)F)s2)no1")
105
>>> value("CC(Oc1ccccc1)C(=O)Nc1ccc(S(=O)(=O)NCC2CCCO2)cc1 (centres undefined)")
98.7
>>> value("Cc1cc(Cl)ccc1OCC(=O)Nn1c(C)ccc1C")
94
>>> value("CCC(=O)N1CCc2cc(S(=O)(=O)CCC(=O)Nc3nc(C)cs3)ccc21")
74.4
>>> value("CCOc1ccc(-c2nc(S(=O)(=O)c3ccccc3)c(NCc3cccnc3)o2)cc1")
97.6
>>> value("O=C(NC1CC2CCC1C2)C1COc2ccccc2O1 (centres undefined)")
87.9
>>> value("CCOC(=O)c1cnc(-n2nc(C)cc2C)nc1Nc1ccc(N(C)C)cc1")
37.9
>>> value("CCOc1ccc(N2CC(C(=O)NCCc3ccc(OC)c(OC)c3)CC2=O)cc1 (centres undefined)")
94.5
>>> value("CCOC(=O)CSC1=C(C#N)C(c2ccc3c(c2)OCO3)CC(=O)N1 (centres undefined)")
13.1
>>> value("O=C(Cn1cnc2c(cnn2-c2ccccc2)c1=O)NCCc1ccccc1")
91.8
>>> value("Cc1nnc(NC(=O)CCC(=O)N2CCC(C)CC2)s1")
90.8
